assay: Conjugator-antibody conjugate maleimide hydrolysis (ring opening) kinetics by reduced LCMS; type: physicochemical; conditions: pH 7, time point 24 h

| compound | MS DAR |
| --- | --- |
| CN(C)C(=O)CCNC(=O)OCCC(CN)N1C(=O)C=CC1=O (stereo not shown) | 8 |
| NCC(COC(=O)NCCOCCOCCOCCOCCC(=O)O)N1C(=O)C=CC1=O (stereo not shown) | 7.98 |
| CN(C)C(=O)CCCCC(CN)N1C(=O)C=CC1=O (stereo not shown) | 8 |
| CN(C)C(=O)CCOCCC(CN)N1C(=O)C=CC1=O (stereo not shown) | 8 |

* * *

Measured RO (%) Total accompanies every entry in the list below.
assay: Conjugator-antibody conjugate maleimide hydrolysis (ring opening) kinetics by reduced LCMS; format: physicochemical; conditions: pH 7, time point 3 h

| molecule | RO (%) Total |
| --- | --- |
| CN(C)C(=O)CCOCC(N)CN1C(=O)C=CC1=O (stereo not drawn) | 74.73 |
| CC(C)N(CCC(=O)N(C)C)C(=O)OCC(CN)N1C(=O)C=CC1=O (stereo not drawn) | 94.86 |
| NCC(COC(=O)NCCOCCOCCOCCOCCC(=O)O)N1C(=O)C=CC1=O (stereo not drawn) | 84.98 |

Sourced from patent US20250352659A1
